measured-target: T1, Macaca fascicularis IL2Rγ extracellular domain expressed with a C-terminal myc-myc-hexahistidine tag (Macaca fascicularis)
T1 construct: whole entry is the tagged construct; also called mfIL-2Rg-MMH
T1 chain: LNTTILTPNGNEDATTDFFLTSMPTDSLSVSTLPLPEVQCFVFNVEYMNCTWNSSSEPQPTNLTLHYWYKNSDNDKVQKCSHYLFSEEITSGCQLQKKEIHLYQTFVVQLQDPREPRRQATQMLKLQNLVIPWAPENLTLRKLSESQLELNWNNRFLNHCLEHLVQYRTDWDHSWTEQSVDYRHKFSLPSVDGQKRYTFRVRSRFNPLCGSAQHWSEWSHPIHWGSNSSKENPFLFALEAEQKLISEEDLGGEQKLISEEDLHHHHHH
procedure-text: SPR Biacore 4000, anti-hFc-captured mAb, 37 C
Where t1/2 equals or exceeds 10 min, the correct label is label 1; where it does not, the label is label 0.

1) H4H12899P (antibody, human IgG4 S228P, kappa, V domains shown, fully human anti-IL2Rgamma mAb, human IgG4 Fc) VH: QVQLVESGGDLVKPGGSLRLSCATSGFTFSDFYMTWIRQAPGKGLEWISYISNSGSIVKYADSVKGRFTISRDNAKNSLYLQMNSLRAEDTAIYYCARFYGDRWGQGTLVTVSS VL: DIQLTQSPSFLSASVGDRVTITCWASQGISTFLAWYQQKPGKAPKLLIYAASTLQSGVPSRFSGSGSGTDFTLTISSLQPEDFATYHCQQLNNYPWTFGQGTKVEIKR: label 0
2) H4H13538P (antibody, human IgG4 S228P, kappa, V domains shown, fully human anti-IL2Rgamma mAb, human IgG4 Fc) VH: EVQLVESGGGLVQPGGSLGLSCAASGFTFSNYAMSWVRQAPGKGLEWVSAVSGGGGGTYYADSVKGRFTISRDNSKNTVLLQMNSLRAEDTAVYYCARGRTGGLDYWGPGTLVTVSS VL: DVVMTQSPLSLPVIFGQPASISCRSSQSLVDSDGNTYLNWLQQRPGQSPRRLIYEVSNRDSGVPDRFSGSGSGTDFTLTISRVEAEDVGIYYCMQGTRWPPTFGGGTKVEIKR: label 1
3) H4H12863P (antibody, human IgG4 S228P, kappa, V domains shown, fully human anti-IL2Rgamma mAb, human IgG4 Fc) VH: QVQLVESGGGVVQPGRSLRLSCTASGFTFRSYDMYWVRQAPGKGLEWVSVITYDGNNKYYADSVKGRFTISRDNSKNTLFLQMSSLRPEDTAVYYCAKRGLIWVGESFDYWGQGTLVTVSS VL: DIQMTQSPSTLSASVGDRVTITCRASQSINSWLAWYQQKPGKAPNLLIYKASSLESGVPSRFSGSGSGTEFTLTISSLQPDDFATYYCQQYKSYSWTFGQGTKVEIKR: label 0
4) H4H12900P (antibody, human IgG4 S228P, kappa, V domains shown, fully human anti-IL2Rgamma mAb, human IgG4 Fc) VH: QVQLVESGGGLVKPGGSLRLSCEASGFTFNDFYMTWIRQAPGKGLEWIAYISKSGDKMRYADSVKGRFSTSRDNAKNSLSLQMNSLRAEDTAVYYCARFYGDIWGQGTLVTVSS VL: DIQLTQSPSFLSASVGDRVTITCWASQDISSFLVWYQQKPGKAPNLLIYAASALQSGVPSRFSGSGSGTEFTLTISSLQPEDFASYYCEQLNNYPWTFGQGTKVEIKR: label 0
5) H4H13541P (antibody, human IgG4 S228P, kappa, V domains shown, fully human anti-IL2Rgamma mAb, human IgG4 Fc) VH: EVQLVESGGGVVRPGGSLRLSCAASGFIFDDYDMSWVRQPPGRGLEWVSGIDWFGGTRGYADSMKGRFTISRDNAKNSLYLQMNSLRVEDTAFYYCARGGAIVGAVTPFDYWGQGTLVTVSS VL: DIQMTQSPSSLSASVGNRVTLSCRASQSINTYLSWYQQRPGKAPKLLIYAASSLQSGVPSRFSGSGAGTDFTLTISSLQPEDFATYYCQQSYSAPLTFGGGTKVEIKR: label 1
6) H4H12886P (antibody, human IgG4 S228P, kappa, V domains shown, fully human anti-IL2Rgamma mAb, human IgG4 Fc) VH: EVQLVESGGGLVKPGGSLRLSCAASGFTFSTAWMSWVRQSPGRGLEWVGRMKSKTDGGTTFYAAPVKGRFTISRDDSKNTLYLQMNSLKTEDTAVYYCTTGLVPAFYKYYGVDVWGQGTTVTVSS VL: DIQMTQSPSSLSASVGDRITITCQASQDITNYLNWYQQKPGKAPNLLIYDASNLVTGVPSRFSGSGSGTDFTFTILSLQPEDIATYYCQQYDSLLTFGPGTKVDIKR: label 1
